Source: PubChem BioAssay AID1304

Overview of recorded activation for various molecules
targetOfAssay: Neuropeptide Y receptor type 1 (Homo sapiens)
experimentalDetails: NPY-Y1 receptor potentiators or agonists, primary screen, cell-based (AID 1304);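 also: cells stimulated with NPY at EC10 then isoproterenol at EC100; 0% = low agonist plus stimulus and 100% = saturating agonist plus stimulus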
conditions: NPY-Y1 expressing cells, potentiator/agonist activation; at 3.6 µM; hits give high values
About 800 (0.36%) of roughly 220,000 compounds were called active. Many of the other results were omitted from the sample, so actives are more common in it than they were.
experimentalReadout: activation (%)

>>> reported("CC(O)CNCCOc1cccc(Oc2ccccc2)c1 (stereo unspecified)")
-10
>>> reported("COc1cccc2sc(N(CCCN(C)C)C(=O)C(c3ccccc3)c3ccccc3)nc12")
103
>>> reported("NC(=O)CC[C@@H]1NC(=O)[C@H](CO)NC(=O)c2cc([N+](=O)[O-])cc(I)c2NCC[C@@H](C(N)=O)NC1=O")
-22.3
>>> reported("CN(C)CCCN(C(=O)COc1ccccc1)c1nc2c(Cl)cccc2s1")
-13.9
>>> reported("CS(=O)(=O)n1nc(-c2ccco2)nc1N")
-9.25
>>> reported("CC(=O)N(CCCN(C)C)c1nc2ccc(C)cc2s1")
-7.71
>>> reported("Fc1ccc(-c2csc(-c3ccc(C4SCCS4)cc3)n2)cc1F")
-5.29
>>> reported("CSc1nc(-c2ccco2)nn1C(=O)c1ccccc1Cl")
56.1
>>> reported("Cc1c(CN2CCCCC2)c(O)n(CCO)c(=O)c1C#N")
10.5
>>> reported("CSc1nc(-c2ccco2)nn1C(=O)CCc1ccccc1")
-13.4
>>> reported("O=C(O)C1C2C=CC(O2)C1C(=O)NCCc1cccc(Cl)c1 (stereo unspecified)")
1.36

====

targetOfAssay: Neuropeptide Y receptor type 1 (Homo sapiens) (UniProt P25929)
Sequence (P25929 whole entry, looked up): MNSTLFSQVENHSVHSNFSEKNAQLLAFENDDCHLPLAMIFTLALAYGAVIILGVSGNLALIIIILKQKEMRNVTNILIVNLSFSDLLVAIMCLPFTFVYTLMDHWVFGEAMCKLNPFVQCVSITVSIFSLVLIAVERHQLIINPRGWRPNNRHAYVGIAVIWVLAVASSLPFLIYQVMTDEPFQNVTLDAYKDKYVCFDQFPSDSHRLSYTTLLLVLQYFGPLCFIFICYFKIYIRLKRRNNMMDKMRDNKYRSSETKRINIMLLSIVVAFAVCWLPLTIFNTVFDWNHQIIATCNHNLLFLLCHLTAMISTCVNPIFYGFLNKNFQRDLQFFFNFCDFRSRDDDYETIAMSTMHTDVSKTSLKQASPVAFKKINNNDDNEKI
experimentalDetails: NPY-Y1 receptor potentiators or agonists, primary screen, cell-based (AID 1304);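 also: cells stimulated with NPY at EC10 then isoproterenol at EC100; 0% = low agonist plus stimulus and 100% = saturating agonist plus stimulus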
conditions: NPY-Y1 expressing cells, potentiator/agonist activation; at 3.6 µM
Hit rate of the full screen: of about 220,000 compounds, about 800 (0.36%) were called active. No stated cut-off is given here; in the data, active means activation above about 33% (passing the limit was not always enough); inactive means the rest. Shown is part of a subset that was picked to be rich in actives.
Outcome codes: active, inactive

>>> class("O=C(c1cccs1)N1CCN(C(=O)N2CCOCC2)CC1")
"active"
>>> class("Cc1ccc(C(=O)N2CCN(C(=O)N3CCOCC3)CC2)cc1")
"inactive"
>>> class("Cc1cnc(C(=O)OCC(=O)N2CCc3ccccc32)cn1")
"inactive"

====

targetOfAssay: Neuropeptide Y receptor type 1 (Homo sapiens)
experimentalDetails: NPY-Y1 receptor potentiators or agonists, primary screen, cell-based (AID 1304);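 also: cells stimulated with NPY at EC10 then isoproterenol at EC100; 0% = low agonist plus stimulus and 100% = saturating agonist plus stimulus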
conditions: NPY-Y1 expressing cells, potentiator/agonist activation; at 3.6 µM; hits give high values
In all, about 220,000 compounds went through this assay and about 800 (0.36%) were called active. The list comes from a sample in which actives are over-represented; it also holds close analogues and randomly drawn compounds.
Catalogue of activation values
experimentalReadout: activation (%)

>>> reported("O=C(O)C1CCN(c2ccc([N+](=O)[O-])cc2[N+](=O)[O-])CC1")
-10.1
>>> reported("Cc1ccccc1NCC(=O)N/N=C\\c1ccc([N+](=O)[O-])s1")
39.4
>>> reported("O=S(=O)(Nc1ccccn1)c1cccc(S(=O)(=O)c2ccc(Cl)cc2)c1")
-10.4
>>> reported("S=c1[nH]nc(-c2cc(-c3ccsc3)n[nH]2)n1-c1ccccc1")
-8.71
>>> reported("CCOC(=O)C1(S(=O)(=O)c2ccccc2)CCN(Cc2ccccc2)CC1")
3.32
>>> reported("COc1ccc(C(=O)NCC(=O)N/N=C/c2ccc([N+](=O)[O-])s2)cc1OC")
6.89
>>> reported("CC1=NNC(=O)C1CCC(=O)N/N=C\\c1cccc(Cl)c1 (stereo not drawn)")
4.52
>>> reported("CC(CCc1ccccc1)NCC(O)c1cccc([N+](=O)[O-])c1 (stereo not drawn)")
107
>>> reported("O=C(CCn1ccc([N+](=O)[O-])n1)Nc1nccs1")
7.17
>>> reported("Cc1cc(C)c(NC(=O)c2oc3ccccc3c2COc2ccccc2)c(C)c1")
-49.2
>>> reported("CC(=O)NC(=S)NNC(=O)c1ccc(Br)cc1")
-6.38
>>> reported("Cc1cc(-c2nnc(CCC(=O)NC(c3ccccc3)c3ccccc3)o2)no1")
-1.1
>>> reported("CC(=O)NCC(O)c1ccc([N+](=O)[O-])cc1 (stereo not drawn)")
-3.81
>>> reported("COCCCNC(=S)N1CCCC(c2nc3cc(C)c(C)cc3[nH]2)C1 (stereo not drawn)")
8.07
>>> reported("Cc1cc(C)cc(OCC(=O)NCc2cc(C)nc3ccccc23)c1")
0.39
>>> reported("COc1cc(N2C(=O)CC3(CCCC3)CC2=O)cc(OC)c1OC")
-14.9
>>> reported("COc1ccc(C(=O)OCC(=O)NC(=O)CCSc2ccccc2)cc1")
-33.3
>>> reported("O=C(/C=C/c1cnc2ccccc2n1)NC1CCCCCC1")
-3.45
>>> reported("CCc1nnc(NC(=O)CCN(c2ccc(C)cc2)S(=O)(=O)c2ccccc2)s1")
1.52
>>> reported("O=C1CC(c2cccc(Cl)c2)CC(O)=C1C=Nc1ccccc1 (stereo not drawn)")
-11.9
>>> reported("C=CCNC(=O)/C=C/c1ccc(C(C)C)cc1")
9.4
>>> reported("CCOc1ccc(NC(=O)CCC(=O)N/N=C/c2ccc([N+](=O)[O-])s2)cc1")
19.1
>>> reported("CC1=C/C(=N\\OS(=O)(=O)c2ccccc2)C=CC1=O")
44.8
